Measured EC50, listed per entry.
- measurement target: human FXR (Homo sapiens, UniProt Q96RI1)
- Sequence (Q96RI1 262-486 limits assumed): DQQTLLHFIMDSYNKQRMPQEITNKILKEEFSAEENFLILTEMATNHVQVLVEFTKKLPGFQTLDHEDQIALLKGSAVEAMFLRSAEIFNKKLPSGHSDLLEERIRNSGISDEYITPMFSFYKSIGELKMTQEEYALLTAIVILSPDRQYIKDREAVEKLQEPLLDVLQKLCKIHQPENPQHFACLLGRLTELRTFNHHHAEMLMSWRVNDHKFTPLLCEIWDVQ
- protocol details: transient human FXR/Gal4-luciferase reporter assay
- details: Gal4-hFXR LBD fusion, luciferase reporter in HEK293 cells; response relative to 8 μM GW-4064
Report only the number, with the unit nM understood.

Example entries and their recorded answers appear below.
Cc1nc2ccc(-c3cccc(N(CC45CCC(c6cc(C7CC7)nn6C)(CC4)CC5)C(=O)C4CCC(F)(F)CC4)c3)cc2s1 [Example 137]	449
CCOc1ccc(-c2cccc(N(CC34CCC(c5noc(C(C)(F)F)n5)(CC3)CC4)C(=O)C3CCC(F)(F)CC3)c2)cc1 [Example 113]	665
CC(C)(F)c1nc(C23CCC(CN(C(=O)C4CCOCC4)c4cccc(-c5cn[nH]c(=O)c5)c4)(CC2)CC3)no1 [Example 128]	4000
CCOc1ccc(-c2cc(N(CC34CCC(c5noc(C(C)(F)F)n5)(CC3)CC4)C(=O)C3CCC(O)(C(F)(F)F)CC3)ccc2F)cc1 (single isomer, unassigned) [Example 164]	271
COc1cc(-c2cccc(N(CC34CCC(c5nnnn5C)(CC3)CC4)C(=O)C3CCCCC3)c2)ccn1 [Example 100]	506

Proceed to the following item.
Query: Which measured EC50 value corresponds to O=C(C1CCOCC1)N(CC12CCC(c3nc(C4CC4)no3)(CC1)CC2)c1cccc(-c2nc(C(F)F)co2)c1 [Example 36] ?
Result: 525

---

- measurement target: human FXR (Homo sapiens)
- protocol details: transient human FXR/Gal4-luciferase reporter assay
- details: Gal4-hFXR LBD fusion, luciferase reporter in HEK293 cells; response relative to 8 μM GW-4064
Reported log10 EC50 values for the following compounds.
The common logarithm of EC50 in nM is what is listed.

Query: Provide the documented log10 EC50 with human FXR (Homo sapiens) as the system for Cc1nc2ccc(-c3cccc(N(CC45CCC(c6nc(C7CC7)no6)(CC4)CC5)C(=O)C4CCCCC4)c3)cc2s1 [Example 90]
Result: 1.56

Query: Lookup: log10 EC50 / human FXR (Homo sapiens) / CCOc1ncc(-c2cccc(N(CC34CCC(c5nc(C6CC6)no5)(CC3)CC4)C(=O)C3CCC(F)(F)CC3)c2)o1 [Example 9]
Result: 2.15

Query: Lab note: need log10 EC50 for CN1CCC(C(=O)N(CC23CCC(c4cc(C5CC5)nn4C)(CC2)CC3)c2cccc(-c3cc(C4CC4)no3)c2)CC1 [Example 140] on human FXR (Homo sapiens), anyone have it?
Result: 3.42

Query: Provide the documented log10 EC50 with human FXR (Homo sapiens) as the system for Cc1cnc(C23CCC(CN(C(=O)C4CCCCC4)c4cccc(-c5nc(C6CC6)no5)c4)(CC2)CC3)o1 [Example 35]
Result: 2.71

Query: Provide the documented log10 EC50 with human FXR (Homo sapiens) as the system for CC(C)(C)c1nc(C23CCC(CN(C(=O)C4CCC(F)(F)CC4)c4cccc(-c5cc(C6CC6)no5)c4)(CC2)CC3)no1 [Example 148]
Result: 2.03

Query: Recall the recorded log10 EC50 for CC(F)(F)c1nc(C23CCC(CN(C(=O)C4CCOCC4)c4cccc(-c5cc(C6CC6)on5)c4)(CC2)CC3)no1 [Example 156] with human FXR (Homo sapiens) and state it.
Result: 1.64

Query: Field: log10 EC50 (human FXR (Homo sapiens)). Entry: O=C(N1CCC(F)(F)CC1)N(CC12CCC(c3nc(C4CC4)no3)(CC1)CC2)c1cccc(-c2nc(C3CC3)no2)c1 [Example 58]
Result: 2.62

---

Overview of reported log10 EC50 across a group of compounds:
- measurement target: human FXR (Homo sapiens, UniProt Q96RI1)
- protocol details: transient human FXR/Gal4-luciferase reporter assay
- details: Gal4-hFXR LBD fusion, luciferase reporter in HEK293 cells; response relative to 8 μM GW-4064
Please keep in mind that the values are log10 of EC50 expressed in nM.

Example entries and their recorded answers appear below.
Cn1nc(C2CC2)cc1C12CCC(CN(C(=O)C3CCS(=O)(=O)CC3)c3cccc(-c4cc(C5CC5)no4)c3)(CC1)CC2	3.20
Cn1nc(C2CC2)cc1C12CCC(CN(C(=O)C3CCS(=O)(=O)CC3)c3cccc(-c4cc(C5CC5)on4)c3)(CC1)CC2	3.29
COc1ncc(-c2cccc(N(CC34CCC(c5nc(C6CC6)no5)(CC3)CC4)C(=O)C3CCCCC3)c2)o1	1.71
COc1cc(-c2cccc(N(CC34CCC(C(=O)NC5CC5)(CC3)CC4)C(=O)C3CCCCC3)c2)ccn1	2.60
CC1CN(C(=O)N(CC23CCC(c4nc(C5CC5)no4)(CC2)CC3)c2cccc(-c3nc(C4CC4)no3)c2)CC(C)O1 (stereo not drawn)	3.05
CC(F)(F)c1nc(C23CCC(CN(C(=O)C4CCS(=O)(=O)CC4)c4cccc(-c5cc(C6CC6)on5)c4)(CC2)CC3)no1	2.46
CC(C)(O)c1coc(-c2cccc(N(CC34CCC(c5nc(C6CC6)no5)(CC3)CC4)C(=O)C3CCCCC3)c2)n1	2.29
Cn1nc(C23CCC(CN(C(=O)C4CCCOC4)c4cccc(-c5nc(C6CC6)no5)c4)(CC2)CC3)cc1C1CC1 (racemic)	2.41
CN1CCC(C(=O)N(CC23CCC(c4cc(C5CC5)nn4C)(CC2)CC3)c2cccc(-c3ccc(S(C)(=O)=O)cc3)c2)CC1	3.60
O=C(C1CCCCC1)N(CC12CCC(c3nc(C4CC4)no3)(CC1)CC2)c1cccc(-c2nc(C(F)F)co2)c1	2.22

Query: Using the record for CCOc1ncc(-c2cccc(N(CC34CCC(c5noc(C(C)(C)F)n5)(CC3)CC4)C(=O)c3ccc(OC(F)F)cc3)c2)cn1 , report its log10 EC50.
Result: 2.52

Query: What does the record list as log10 EC50 for O=C(C1CCC(F)(F)CC1)N(CC12CCC(c3nc(C4CC4)no3)(CC1)CC2)c1cccc(-c2nc(C3CC3)no2)c1 ?
Result: 2.43

Query: Please look up its log10 EC50: CCc1noc(-c2cccc(N(C(=O)C3CCCCC3)C(C)C34CCC(c5nc(C)no5)(CC3)CC4)c2)n1 (single isomer, unassigned) [Example 70]
Result: 3.18

Query: Using the record for COc1cc(-c2cccc(N(CC34CCC(C#N)(CC3)CC4)C(=O)C3CCCCC3)c2)ccn1 , report its log10 EC50.
Result: 3.18

Query: Entry under review: Cn1nc(C2CC2)cc1C12CCC(CN(C(=O)C3CCS(=O)(=O)CC3)c3cccc(-c4ccc(S(C)(=O)=O)cc4)c3)(CC1)CC2 . Reported log10 EC50?
Result: 3.60

Query: # input compound: CC1CCN(C(=O)N(CC23CCC(c4nc(C5CC5)no4)(CC2)CC3)c2cccc(-c3nc(C4CC4)no3)c2)CC1 ; wanted: its log10 EC50
Result: 3.01

Query: log10 EC50; subject: CC(C)(C)c1noc(C23CCC(CN(C(=O)C4CCOCC4)c4cccc(-c5cc(C6CC6)on5)c4)(CC2)CC3)n1
Result: 1.89

Query: Reported log10 EC50 for CCn1cc(-c2cccc(N(CC34CCC(c5nc(C6CC6)no5)(CC3)CC4)C(=O)C3CCCOC3)c2)oc1=O (racemic) : what is it?
Result: 3.12

---

- measurement target: human FXR (Homo sapiens)
- protocol details: transient human FXR/Gal4-luciferase reporter assay
- details: Gal4-hFXR LBD fusion, luciferase reporter in HEK293 cells; response relative to 8 μM GW-4064
property: EC50 (nM)
Answer format: numeric, nM implied, no suffix.

# count of solved cases: 2
Cc1nc2ccc(-c3cccc(N(CC45CCC(c6nc(C7CC7)no6)(CC4)CC5)C(=O)C4CCOCC4)c3)cc2s1 [Example 91]	97
COC(=O)C1CC1c1cccc(N(CC23CCC(c4nc(C)no4)(CC2)CC3)C(=O)C2CCCCC2)c1 (single isomer, unassigned) [Example 101]	245

Query: Requested field: EC50. Item: CC(C)(C)c1noc(C23CCC(CN(C(=O)C4CCC(F)(F)CC4)c4cccc(-c5cn[nH]c(=O)c5)c4)(CC2)CC3)n1 [Example 127]
Result: 4000

Query: I would be grateful if you could share the reported EC50 for CCOc1cc(-c2cccc(N(CC34CCC(c5nc(C6CC6)no5)(CC3)CC4)C(=O)C3CCCCC3)c2)no1 [Example 27] .
Result: 75

Query: Reported EC50, compound CC(C)(C)c1noc(C23CCC(CN(C(=O)C4CCOCC4)c4cc(F)cc(-c5nc(C6CC6)no5)c4)(CC2)CC3)n1 [Example 115] : ____
Result: 83
